Reported % Inhibition values for a set of compounds
- Tested on: P. falciparum stage V gametocytes
- Design: BacTiter-Glo ATP luminescence viability of purified stage V gametocytes in 384-well plates, per cent inhibition versus DMSO
- condition.parameters: 48 h, 5 µM; inhibitor
The whole screen tested about 13,000 compounds, of which about 3,200 (25%) showed an effect of 50% or more. The list shows a part of the results.
State the answer as a number, implicitly in %.

Example entries and their recorded answers appear below.
CCNc1cc(C(=O)N[C@@H](Cc2ccccc2)[C@H](O)CNC2CCC(C(C)(C)C)CC2)cc(N2CCCC2=O)c1 (stereo partly shown); 47.86
O=C(Nc1ccc(O)c(-c2nc3ccccc3[nH]2)c1)c1ccc([N+](=O)[O-])cc1; -7.746
Cc1ccc(Nc2nc(C)cc(Nc3cccc(C#N)c3)n2)cc1; 4.468
Nc1c2c(nc3ccc(NC(=O)CCCc4ccccc4)cc13)CCCC2; 98.45
Cc1cc(N2CCCN(CC3CCCCC3)CC2)nc(Nc2ccc(Br)cc2)n1; -10.88

Query string: Find the recorded % Inhibition belonging to `CN(N=Cc1ccccc1)C(N)=NCCCC#Cc1cccc(CN2CCCC2)c1` and report it.
Result string: 99.7

Query string: Find the recorded % Inhibition belonging to `CC(=O)N1N=C(c2ccc(Cl)cc2)Sc2c1nc(-c1ccccc1)n2C(C)=O` and report it.
Result string: 80.4

Query string: Find the recorded % Inhibition belonging to COC(=O)c1ccc(CC(C)NCC(O)c2cccc(C(F)(F)F)c2)cc1C (stereo not shown) and report it.
Result string: 8.047

Query string: Find the recorded % Inhibition belonging to COc1cc(F)c2ncc(Cl)c(C(O)CN3CCC(NC(=O)c4ccc5c(n4)NC(=O)CO5)CC3)c2c1 (stereo not shown) and report it.
Result string: -16.65

Query string: Find the recorded % Inhibition belonging to Cc1cc(C(=O)Nc2ccc3c(c2)CCN3C2CCN(Cc3csc4ccccc34)C2)no1 (stereo not shown) and report it.
Result string: 15.45

Query string: Find the recorded % Inhibition belonging to `Cc1cccc2[nH]c(-c3ccc(-c4ccc(NC(=O)Nc5cccc(C#N)c5)cc4)cc3)nc12` and report it.
Result string: -20.21

Query string: Find the recorded % Inhibition belonging to Cc1cc(N2CCC(N(C)C)C2)nc(Nc2ccc(Cl)cc2)n1 (stereo not shown) and report it.
Result string: -3.517

Query string: Find the recorded % Inhibition belonging to `CCCN1CCC(NCc2cn(C)nc2-c2ccc(Oc3ccccc3)cc2)CC1` and report it.
Result string: 46.58

Query string: Find the recorded % Inhibition belonging to Cc1ccc(C)c(NC(=O)CC2C(=O)N(c3ccccc3)C(=S)N2Cc2ccco2)c1 (stereo not shown) and report it.
Result string: 88.68

###

- System: P. falciparum stage V gametocytes
- Set-up: BacTiter-Glo ATP luminescence viability of purified stage V gametocytes in 384-well plates, per cent inhibition versus DMSO
- condition.parameters: 48 h, 5 µM; inhibitor
The whole screen tested about 13,000 compounds, of which about 3,200 (25%) showed an effect of 50% or more. The list shows a part of the results.
measurement.label: % Inhibition (%)
State the answer as a number, implicitly in %.

CN(c1cc(NC(=O)c2ccc(F)cc2)ccn1)C1CCN(Cc2cccc(F)c2)CC1; 38.57
O=C(Nc1cccc(-c2cccc(-c3nc4ccc(C(F)(F)F)cc4[nH]3)c2)c1)c1ccc(=O)[nH]n1; -1.351
CNC(=O)C1Cc2c([nH]c3c(C)cccc23)C2(N1)C(=O)Nc1ccc(OC(F)(F)F)cc12 (stereo not shown); 46.7
O=C(NC1CCN(Cc2ccccc2)CC1)c1ccc(-c2nc3cc(Cl)c(Cl)cc3[nH]2)c(F)c1; 2.132
CCOC(=O)c1c(C)noc1Nc1ccc(OC)cc1; -6.953
CC(C)N1CCC(N(Cc2ccc(-c3ccc(C(F)(F)F)cc3)cc2)C(=O)Cn2c(CCc3cccc(F)c3F)cc(=O)c3ccccc32)CC1; 111.4
Nc1nc(N)c2c(n1)CCC(c1ccccc1)C2 (stereo not shown); -20.76
O=C(NCC1CCN(CC2CCCCC2)C1)c1cc(-c2cccc(Cl)c2)cs1 (stereo not shown); 42.83

Query string: Find the recorded % Inhibition belonging to `Cc1cc(OCC2CCN(c3ccc(C(=O)NC4CC4)cn3)CC2)ccc1F` and report it.
Result string: 14.38

Query string: Find the recorded % Inhibition belonging to `COc1cc2c(Nc3ccc(NC(=O)c4ccccc4)cc3)ncnc2cc1OCCCN1CCOCC1` and report it.
Result string: -52.63

###

Reported % Inhibition values for a set of compounds
- Tested on: P. falciparum stage V gametocytes
- Parameters: BacTiter-Glo ATP luminescence viability of purified stage V gametocytes in 384-well plates, per cent inhibition versus DMSO
- condition.parameters: 48 h, 5 µM, inhibitor, % Inhibition
Among all 13,000 compounds or so, about 3,200 (25%) showed an effect of 50% or more. Some of the results follow.

COC(=O)c1ccc(CC(C)NCC(O)c2cccc(C(F)(F)F)c2)cc1 (stereo not shown) [TCMDC-131438]; 6.787%

Query string: Find the recorded % Inhibition belonging to Cc1ccc(C)c(C=CC(=O)NC2CCC(CN3CCC(c4c[nH]c5ccccc45)CC3)CC2)c1 (stereo not shown) [TCMDC-139904] and report it.
Result string: 66.94%

Query string: Find the recorded % Inhibition belonging to CC(=O)Nc1ccc2[nH]cc(C3CCN(CC4CCC(NC(=O)/C=C/c5ccc(Cl)c(Cl)c5)CC4)CC3)c2c1 (stereo not shown) [TCMDC-139851] and report it.
Result string: 9.174%

Query string: Find the recorded % Inhibition belonging to O=C(/C=C/c1ccc(Cl)c(Cl)c1)NCCCCCN1[C@@H]2CC[C@H]1CC(c1c[nH]c3ccc(O)cc13)C2 (stereo partly shown) and report it.
Result string: 11.46%

Query string: Find the recorded % Inhibition belonging to CC(=O)Nc1ccc2[nH]cc(C3CCN(CC4CCC(NC(=O)/C=C/c5ccc(Cl)c(Cl)c5)CC4)CC3)c2c1 (stereo not shown) [TCMDC-139852] and report it.
Result string: 29.73%

Query string: Find the recorded % Inhibition belonging to O=C(C=Cc1ccc(F)c(Br)c1)NC1CCC(CN2CCC(c3c[nH]c4ccccc34)CC2)CC1 (stereo not shown) and report it.
Result string: -60.64%

Query string: Find the recorded % Inhibition belonging to COc1ccc2ncc(F)c(C(O)CN3CCC(NCc4ccc5c(n4)NC(=O)CO5)CC3)c2c1 (stereo not shown) [TCMDC-135531] and report it.
Result string: 14.63%

###

- Tested on: P. falciparum stage V gametocytes
- Design: BacTiter-Glo ATP luminescence viability of purified stage V gametocytes in 384-well plates, per cent inhibition versus DMSO
- condition.parameters: 48 h, 5 µM; inhibitor
Hit rate of the full screen: of about 13,000 compounds, about 3,200 (25%) showed an effect of 50% or more. Some of the results follow.
Would you mind labelling by % Inhibition? At or over -20% is class 1, under is class 0.

O=C(Nc1cccc(CN2CCCN(Cc3ccccc3)CC2)c1)c1cc2ccccc2s1 [TCMDC-141864]; class 0
CC(CN1CCN(C)CC1)C(=O)Nc1ccc(-c2ccc(-c3nc4ccccc4[nH]3)cc2)cc1 (stereo not shown) [TCMDC-137148]; class 1

Query string: In plain terms: is recorded % Inhibition at least -20% for O=C(Nc1cccc(CN2CCCN(Cc3cccc(O)c3)CC2)c1)c1cc2ccccc2s1 [TCMDC-141875] ?
Result string: class 0

Query string: In plain terms: is recorded % Inhibition at least -20% for O=C(Nc1cccc(CN2CCCN(Cc3ccsc3)CC2)c1)c1cc2ccccc2s1 [TCMDC-134612] ?
Result string: class 0

Query string: In plain terms: is recorded % Inhibition at least -20% for Cc1cccc2nc(-c3ccc(-c4ccc(NC(=O)C(C)CN5CCN(C)CC5)cc4)s3)[nH]c12 (stereo not shown) [TCMDC-137154] ?
Result string: class 0

Query string: In plain terms: is recorded % Inhibition at least -20% for Cc1noc(C)c1-c1ccc2c(Nc3ccccc3C(C)(C)C)c(C(=O)NCc3ccccc3)cnc2c1.Cl [TCMDC-136366] ?
Result string: class 1

Query string: In plain terms: is recorded % Inhibition at least -20% for CC(CN1CCN(C)CC1)C(=O)Nc1ccc(-c2cccc(-c3nc4ccccc4[nH]3)c2)cc1 (stereo not shown) [TCMDC-137139] ?
Result string: class 1

Query string: In plain terms: is recorded % Inhibition at least -20% for CCC(C)NC(=O)Nc1ccc(-c2cccc(-c3nc4ccccc4[nH]3)c2)cc1 (stereo not shown) [TCMDC-133241] ?
Result string: class 1

Query string: In plain terms: is recorded % Inhibition at least -20% for O=C(Nc1cccc(CN2CCCN(Cc3cccnc3)CC2)c1)c1cc2ccccc2s1 [TCMDC-141868] ?
Result string: class 1

Query string: In plain terms: is recorded % Inhibition at least -20% for CC(CN1CCN(C)CC1)C(=O)Nc1ccc(-c2ccc(-c3nc4ccccc4[nH]3)s2)cc1 (stereo not shown) [TCMDC-137140] ?
Result string: class 1

Query string: In plain terms: is recorded % Inhibition at least -20% for Cc1noc(C)c1-c1ccc2c(Nc3cccc4c3-c3ccccc3C4=O)c(C(=O)NCc3ccccc3I)cnc2c1 [TCMDC-136308] ?
Result string: class 1

Query string: In plain terms: is recorded % Inhibition at least -20% for COc1cccc(CN2CCCN(Cc3cccc(NC(=O)c4cc5ccccc5s4)c3)CC2)c1 [TCMDC-141874] ?
Result string: class 0

Query string: In plain terms: is recorded % Inhibition at least -20% for CC(C)CN1CCCN(Cc2cccc(NC(=O)c3cc4ccccc4s3)c2)CC1 [TCMDC-141869] ?
Result string: class 0

Query string: In plain terms: is recorded % Inhibition at least -20% for COc1cc2nccc(Nc3cc(C)cc(O)c3)c2cc1OC.Cl [TCMDC-138196] ?
Result string: class 1

Query string: In plain terms: is recorded % Inhibition at least -20% for CC(CN1CCN(C)CC1)C(=O)Nc1ccc(-c2csc(-c3nc4ccccc4[nH]3)c2)cc1 (stereo not shown) [TCMDC-132391] ?
Result string: class 1

Query string: In plain terms: is recorded % Inhibition at least -20% for O=C(Nc1cccc(CN2CCCN(CCc3ccccc3)CC2)c1)c1cc2ccccc2s1 [TCMDC-141870] ?
Result string: class 1

Data origin, for the record: paper PMC4552634
